Cited source for all entries: patent US11739098B2

# system_name: human TLR9 (Homo sapiens, UniProt Q9NR96)
# measurement_protocol: TLR9 inhibition reporter assay (HEK-Blue cells, SEAP reporter, ODN2006 stimulation)
# run_conditions: HEK-Blue cells overexpressing human TLR9, SEAP reporter, ODN2006 5 nM
What IC50 was measured for each of the following?

compound | IC50
CNCC(=O)N1CCC(c2ccc3[nH]c(-c4cc(C)c5nccn5c4)c(C(C)C)c3c2)CC1 [Example 557] | 100 to 1000 nM
CC(C)c1c(-c2cnc3nccn3c2)[nH]c2ccc(C3CCN(CC(C)(C)O)CC3)cc12 [Example 761] | 100 to 1000 nM
Cc1cc2ncnn2nc1-c1[nH]c2ccc(C3CCN(C4CCOCC4)CC3)cc2c1C(C)C [Example 687] | 1000 to 50000 nM

Please go through the list and note IC50 for each compound.
1. CCOc1cc(-c2[nH]c3ccc(C4CCN(CC(=O)N(C)C)CC4)cc3c2C(C)C)cc2ncnn12 [Example 350]
2. CNC(=O)CN1CCC(c2ccc3[nH]c(-c4cc(C)c5nc(C)cn5c4)c(C(C)C)c3c2)CC1 [Example 391]
3. Cc1cc(-c2[nH]c3ccc(C4CCN(C5CCOCC5)CC4)cc3c2C(C)C)cc2cccnc12 [Example 704]
4. Cc1cc(-c2[nH]c3ccc(C4CCNCC4)cc3c2C(C)C)cc2nccn12 [Example 161]

Output line:
1000 to 50000 nM
100 to 1000 nM
1000 to 50000 nM
100 to 1000 nM

* * *

# system_name: human TLR8 (Homo sapiens)
# Sequence (Q9NR97 27-1041): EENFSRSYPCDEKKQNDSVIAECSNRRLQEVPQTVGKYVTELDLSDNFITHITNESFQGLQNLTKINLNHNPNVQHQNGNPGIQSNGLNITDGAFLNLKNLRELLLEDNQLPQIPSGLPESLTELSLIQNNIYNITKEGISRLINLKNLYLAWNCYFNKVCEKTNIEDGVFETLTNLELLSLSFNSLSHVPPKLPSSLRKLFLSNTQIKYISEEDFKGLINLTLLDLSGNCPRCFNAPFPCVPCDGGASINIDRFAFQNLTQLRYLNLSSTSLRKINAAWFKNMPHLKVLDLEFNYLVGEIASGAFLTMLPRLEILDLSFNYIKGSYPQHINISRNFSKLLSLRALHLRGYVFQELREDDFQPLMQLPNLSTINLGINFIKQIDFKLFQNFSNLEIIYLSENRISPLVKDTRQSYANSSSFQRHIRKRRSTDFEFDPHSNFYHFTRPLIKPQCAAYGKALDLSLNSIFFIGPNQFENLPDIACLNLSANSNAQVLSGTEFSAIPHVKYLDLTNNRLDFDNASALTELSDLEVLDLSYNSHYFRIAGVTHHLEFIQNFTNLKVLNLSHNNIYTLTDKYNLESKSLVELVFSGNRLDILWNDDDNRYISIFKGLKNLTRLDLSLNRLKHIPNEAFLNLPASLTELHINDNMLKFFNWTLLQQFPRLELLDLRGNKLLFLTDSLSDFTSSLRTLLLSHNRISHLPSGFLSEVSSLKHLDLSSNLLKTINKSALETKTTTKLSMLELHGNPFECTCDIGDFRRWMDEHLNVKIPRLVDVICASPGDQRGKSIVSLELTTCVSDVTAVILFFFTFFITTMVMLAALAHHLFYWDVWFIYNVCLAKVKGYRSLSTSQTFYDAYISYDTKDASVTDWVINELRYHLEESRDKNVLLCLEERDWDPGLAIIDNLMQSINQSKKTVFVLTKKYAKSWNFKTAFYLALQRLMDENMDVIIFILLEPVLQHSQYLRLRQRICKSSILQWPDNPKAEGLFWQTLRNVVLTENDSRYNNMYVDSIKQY
# measurement_protocol: TLR8 inhibition reporter assay (HEK-Blue cells, SEAP reporter, R848 stimulation)
# run_conditions: HEK-Blue cells overexpressing human TLR8, SEAP reporter, R848 15.9 μM
readout_label: IC50

molecule | readout_label | value_measured
Cc1cc(-c2[nH]c3ccc(C4CCN(C(=O)CCN5CC(C)(C)OC(C)(C)C5)CC4)cc3c2C(C)C)cn2nnnc12 | IC50 | < 0.1 µM
Cc1cn2cc(-c3[nH]c4ccc(C5CCNCC5)cc4c3C(C)C)ccc2n1 | IC50 | 0.1 to 1 µM

Please go through the list and note IC50 for each molecule.
1. CCN(CC)C(=O)C1CCCN(CC(=O)N2CCC(c3ccc4[nH]c(-c5ccnc6[nH]ccc56)c(C(C)C)c4c3)CC2)C1 (stereo not shown) [Example 569]
2. CCc1c(-c2ccc3onc(N)c3c2)[nH]c2ccc(C3CCNCC3)cc12
3. COc1cc(-c2[nH]c3ccc(C4CCNCC4)cc3c2C(C)C)cc2nc(C)cn12

Output line:
1: < 0.1 µM; 2: 0.1 to 1 µM; 3: 0.1 to 1 µM

* * *

# system_name: human TLR9 (Homo sapiens)
# Sequence (Q9NR96 26-1032): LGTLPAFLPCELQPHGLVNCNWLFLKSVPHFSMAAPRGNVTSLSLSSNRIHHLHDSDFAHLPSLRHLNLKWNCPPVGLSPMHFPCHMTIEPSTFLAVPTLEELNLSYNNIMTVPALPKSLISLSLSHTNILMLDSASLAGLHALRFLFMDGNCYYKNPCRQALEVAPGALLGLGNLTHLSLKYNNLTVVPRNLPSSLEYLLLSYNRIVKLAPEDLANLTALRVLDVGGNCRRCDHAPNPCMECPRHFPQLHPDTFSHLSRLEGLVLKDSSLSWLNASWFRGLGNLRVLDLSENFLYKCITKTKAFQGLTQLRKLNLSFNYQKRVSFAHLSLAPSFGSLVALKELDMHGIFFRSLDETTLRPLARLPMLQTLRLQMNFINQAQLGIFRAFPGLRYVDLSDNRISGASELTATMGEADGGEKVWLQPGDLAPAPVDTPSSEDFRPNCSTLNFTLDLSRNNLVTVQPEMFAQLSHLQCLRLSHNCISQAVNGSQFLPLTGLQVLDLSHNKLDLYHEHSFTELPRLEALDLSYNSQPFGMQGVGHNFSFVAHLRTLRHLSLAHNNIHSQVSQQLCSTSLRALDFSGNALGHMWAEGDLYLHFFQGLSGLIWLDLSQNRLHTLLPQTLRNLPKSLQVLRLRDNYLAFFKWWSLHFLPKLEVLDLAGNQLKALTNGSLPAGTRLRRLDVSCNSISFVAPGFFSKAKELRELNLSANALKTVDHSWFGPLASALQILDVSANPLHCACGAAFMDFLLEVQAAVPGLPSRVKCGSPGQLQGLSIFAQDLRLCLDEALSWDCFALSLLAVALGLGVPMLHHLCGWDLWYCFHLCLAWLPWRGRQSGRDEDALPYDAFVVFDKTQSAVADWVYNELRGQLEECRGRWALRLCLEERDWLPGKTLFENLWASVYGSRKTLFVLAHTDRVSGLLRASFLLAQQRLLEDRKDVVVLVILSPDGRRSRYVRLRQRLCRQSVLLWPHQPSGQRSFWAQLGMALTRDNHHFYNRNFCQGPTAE
# measurement_protocol: TLR9 inhibition reporter assay (HEK-Blue cells, SEAP reporter, ODN2006 stimulation)
# run_conditions: HEK-Blue cells overexpressing human TLR9, SEAP reporter, ODN2006 5 nM
# From the text: TLR7/8/9 Inhibition Reporter Assays HEK-Blue™-cells (Invivogen) overexpressing human TLR7, TLR8 or TLR9 receptors were used for screening inhibitors of these receptors using an inducible SEAP (secreted embryonic alkaline phosphatase) reporter gene under the control of the IFN-β minimal promoter fused to five NF-κB and AP-1-binding sites. […]
pIC50: −log10 of the molar value.
What pIC50 was measured for each of the following?

Please go through the list and note pIC50 for each compound.
1. CC(C)c1c(-c2ccn3cnnc3c2)[nH]c2ccc(C3CCNCC3)cc12 [Example 83]
2. Cc1cc(-c2[nH]c3ccc(C4CCN(C(=O)CN(C)C5CC5)CC4)cc3c2C(C)C)cn2nnnc12 [Example 483]
3. Cc1cc(-c2[nH]c3ccc(C4CCN(C5COC5)CC4)cc3c2C(C)C)cc2ncnn12 [Example 727]

Output line:
1: 6.00 to 7.00; 2: 4.30 to 6.00; 3: 4.30 to 6.00

Please go through the list and note pIC50 for each compound.
1. CCc1c(-c2ccnc3[nH]ncc23)[nH]c2ccc(C3CCN(CCN)CC3)cc12 [Example 656]
2. COc1cc(-c2[nH]c3ccc(C4CCN(CC(N)=O)CC4)cc3c2C(C)C)nn2ncnc12 [Example 284]
3. CC(C)c1c(-c2ccc3nccn3c2)[nH]c2ccc(C3CCN(C)CC3)cc12 [Example 947]
4. CC(C)c1c(-c2cc(C(F)(F)F)c3nccn3c2)[nH]c2ccc(C3CCNCC3)cc12 [Example 136]
5. Cc1cc(-c2[nH]c3ccc(C4CCN(C(=O)CN5CCS(=O)(=O)CC5)CC4)cc3c2C(C)C)cn2nnnc12 [Example 485]

Output line:
6.00 to 7.00
4.30 to 6.00
6.00 to 7.00
6.00 to 7.00
< 4.30
